- assay: soluble on expression in E. coli; label from the status in PepcDB or PDB records

biopolymerSequence: MGSDKIHHHHHHMATIDLIVLGIVKQQPKSAYDIQKAVEYRNISRWVKISTPSIYKKVIQLEQKGYIESKTVKNGKMPEKAVYSLTELGETHFLDLMFDTSSKPINILLDFNAVIVNLNSLTPEKQKLCLNNIEENVQELKKTIEENISIKTEVPETAKAVLEQQLVLAQALETWINSLKDNTGN
soluble on expression in E. coli: not soluble

biopolymerSequence: MGSDKIHHHHHHMSDAHYDMHKRNGYSSDEPYPEIKVLGPNKYYAELLMDDYAGVSSEFTSVNQYLYHNFDLDETHRELSEMWINISITEMLHMEILAKTIRLLGGNPVYRGSTSSCGAYWNGGFVCYGNSICNRLKLDLHLEHVAINNYYKDISLIEDPYIKAILNRIILDEKLHVSLFEKAIEKYCK
soluble on expression in E. coli: not soluble
